Where these numbers come from: ChEMBL document CHEMBL2093137

Test system: Leishmania infantum
experimental details: WHO-TDR: Leishmaniasis
Type: functional, organism-based, Mus musculus
assay setup: Macrophage
true (1) if IC50 is below 0.5 µg/mL. false (0) if not; exact matches included in false (0).

Example cases with answers are listed next.
O=C(CSc1nnc(NC(=O)COc2ccc(Cl)cc2)s1)NCC1CCCO1 (stereo not given)	true (1)
C=CCn1c(Sc2nc3ccccc3o2)nc2c1c(=O)[nH]c(=O)n2C	false (0)
Cc1ccc2sc(N(CCN(C)C)C(=O)C3CCN(S(=O)(=O)c4cccs4)CC3)nc2c1C	false (0)

Answer whether the compound "COc1cccc(-c2cc(CC(=O)NCc3c(F)cccc3F)no2)c1" has IC50 strictly less than 0.5 µg/mL
false (0)

---

Provide the reported % Inhibition of each item.
Test system: Onchocerca ochengi
experimental details: WHO-TDR: Onchocerciasis
Assay type: functional
Parameters: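 at 12.5 µM on microfilariae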
Reply with a number, then the unit it belongs to.

Past entries and their recorded results:
COc1ccc(Cl)cc1S(=O)(=O)Nc1ccc2c(c1)CCC(=O)N2CCC(C)C	100%
Cc1ccc(NC(=O)CN2CCN(c3nccn3-c3ccccc3F)CC2)cc1	100%
CC1CCN(C(C)CNC(=O)Nc2ccc(C(F)(F)F)cc2)CC1 (configuration not stated)	100%
Cc1ccc(S(=O)(=O)N2CCN(c3ccc(Nc4cccnc4)nn3)CC2)c(C)c1	100%

List % Inhibition for every entry below, keeping the order given.
1. O=C(Nc1ccccc1)N1CCN(c2ccc(Nc3ccccn3)nn2)CC1
2. O=C(Nc1nnc(-c2ccc(Br)s2)o1)c1ccno1
3. COc1ccccc1CCNC(=O)CCc1csc(NC(=O)c2cccs2)n1
4. CCOc1ccc(N2CC(CNS(=O)(=O)c3cccc(C(F)(F)F)c3)CC2=O)cc1 (configuration not stated)
5. COc1cccc(NC(=O)N2CCN(c3ccc(Nc4cc(C)ccn4)nn3)CC2)c1

["100%", "0%", "100%", "100%", "100%"]

---

Tested on: Plasmodium falciparum K1
experimental details: WHO-TDR: Malaria
Type: functional, organism-based, Homo sapiens
assay setup: Erythrocyte
observed property: IC50

List IC50 for every entry below, keeping the order given.
1. CC(C)N1CCc2c(sc(NC(=O)c3sc4ccccc4c3Cl)c2C(N)=O)C1
2. O=C(Cc1csc(NC(=O)c2ccc[nH]c2=O)n1)NCc1ccncc1
3. CCOC(=O)c1ccc(NC(=O)CSc2nnc(NC(=O)C34CC5CC(CC(C5)C3)C4)s2)cc1

> 14.1 µg/mL
> 11.1 µg/mL
> 15 µg/mL

List IC50 for every entry below, keeping the order given.
1. CN1CCc2c(OCC(=O)N3N=C(c4cccs4)CC3c3ccc(F)cc3)cccc2C1=O (stereo not drawn)
2. O=C(Nc1ccc2c(c1)N(C(=O)c1cccs1)CC2)c1cc2ccccc2oc1=O
3. COc1cccc(OCC(=O)N2CCN(c3nccn3-c3cccc(Cl)c3)CC2)c1

1: 7.38 µg/mL; 2: > 12.5 µg/mL; 3: 12.2 µg/mL

List IC50 for every entry below, keeping the order given.
1. NC(=O)c1ccc(NC(=O)CCCn2nc(-c3ccc(Cl)cc3)ccc2=O)cc1
2. CCOC(=O)c1ccccc1NC(=O)CSc1ncc(-c2ccccc2)[nH]1

1: > 12.3 µg/mL; 2: > 11.4 µg/mL

List IC50 for every entry below, keeping the order given.
1. Cc1cccc(-c2nc(CCNC(=O)c3ccco3)cs2)c1
2. O=C(Nc1ccc(F)cc1)Nc1cccc(-c2ccc(N3CCCC3)nn2)c1
3. CCc1ccc(NC(=O)N2CCN(c3ccc(Nc4cc(C)ccn4)nn3)CC2)cc1
4. COc1ccc(-c2nc(NC(=O)Cc3ccc(SC)cc3)sc2C)cc1
5. Cc1ccc(SCC(=O)Nc2ccccc2-c2nc3ccccc3[nH]2)cc1
6. CCCc1nnc(NC(=O)CSc2ccc(NC(=O)c3cccs3)nn2)s1
7. CN(C(=O)CN1CC(=O)Oc2ccccc21)c1ccc(O)cc1

1. 6.12 µg/mL
2. > 11.3 µg/mL
3. 8.24 µg/mL
4. 0.271 µg/mL
5. > 11.2 µg/mL
6. > 12.6 µg/mL
7. 2.22 µg/mL

List IC50 for every entry below, keeping the order given.
1. Cc1cc(=O)[nH]c(-n2nc(C)c(CCC(=O)Nc3ccc(F)c(C(F)(F)F)c3)c2C)n1
2. O=C(CC(c1ccccc1)c1ccccc1)NCCCn1nc(-c2ccncc2)ccc1=O
3. O=C(CN1CCN(c2nccn2-c2cccc(Cl)c2)CC1)Nc1ccc(F)cc1F
4. O=C(CCC1CCCCC1)N1CCN(c2ccc(-c3cccnc3)nn2)CC1
5. Cc1nc2c(ccc3nc(Nc4nc5ccc(C(C)C)cc5s4)sc32)s1
6. CS(=O)(=O)N1CCCCC1C(=O)Nc1nc(-c2ccc(F)cc2)cs1 (stereo not drawn)
7. O=C(C1CCCC1)N1CCc2ccc(NS(=O)(=O)c3ccc4c(c3)OCCO4)cc21
8. O=C(C1CCCC1)N1CCN(c2ccc(-c3ccccn3)nn2)CC1

["> 13.1 µg/mL", "5.95 µg/mL", "12.6 µg/mL", "6.4 µg/mL", "3.97 µg/mL", "> 11.5 µg/mL", "> 12.9 µg/mL", "4.13 µg/mL"]

List IC50 for every entry below, keeping the order given.
1. O=C1C=CC(=O)N1c1ccccc1F
2. O=S(=O)(NCC(c1cccnc1)N1CCN(Cc2ccccc2)CC1)c1ccc(Cl)cc1 (stereo not drawn)
3. COC(=O)c1ccccc1N(C)C(=O)c1cc2cccnc2n(C)c1=O
4. O=S(=O)(Nc1nc2c(Cl)cccc2s1)c1ccc(Cl)s1

1: > 5.73 µg/mL; 2: 2.18 µg/mL; 3: > 10.5 µg/mL; 4: > 11 µg/mL

List IC50 for every entry below, keeping the order given.
1. Cc1cc(F)ccc1S(=O)(=O)Nc1ccc2c(c1)CN(C(=O)c1ccco1)CC2
2. CC(=O)N1CCc2ccc(NC(=O)c3ccc(C(C)(C)C)cc3)cc21
3. CS(=O)(=O)N1CCCC1C(=O)Nc1nc(-c2ccc(Cl)s2)cs1 (stereo not drawn)
4. CN1CCN(C(CNC(=O)c2ccc(F)c(F)c2)c2ccc3c(c2)CCN3C)CC1 (stereo not drawn)
5. CCOc1ccc2nc(N(Cc3cccnc3)C(=O)c3ccc(Cl)s3)sc2c1
6. CN1C(=O)C(C)(C)COc2ccc(NS(=O)(=O)c3ccccc3F)cc21
7. COc1ccc(Cl)cc1NC(=O)CSc1nccn1-c1cccc(C)c1C

1. 6.28 µg/mL
2. > 10.1 µg/mL
3. 3.6 µg/mL
4. 1.47 µg/mL
5. 4.14 µg/mL
6. > 11.4 µg/mL
7. > 12.1 µg/mL

List IC50 for every entry below, keeping the order given.
1. O=c1ccc(-c2ccc(F)cc2)nn1CCCNS(=O)(=O)c1cc(F)ccc1F
2. CN1CCCc2cc(C(CNC(=O)COc3ccc(Cl)cc3)N3CCCC3)ccc21 (stereo not drawn)

> 12.7 µg/mL
> 12.8 µg/mL

---

System: Trypanosoma cruzi
experimental details: WHO-TDR: Chagas disease
Format: functional, organism-based, Homo sapiens
assay setup: MRC5
observed property: log10 of IC50 (log10 of the value in µg/mL)
Values below are the log10 of the recorded IC50, with µg/mL as the unit.

Past entries and their recorded results:
O=S(=O)(Nc1nc2c(Cl)cccc2s1)c1ccc(Cl)s1	1.02
CN(C)CCCN(C(=O)c1ccc(Br)s1)c1nc2cc3c(cc2s1)OCCO3	-0.03
CSc1ccccc1-c1nnc(NC(=O)c2ccc(Cl)s2)o1	-0.38
O=C(/C=C/c1cccs1)N(CCCN1CCOCC1)c1nc2ccccc2s1	0.65
CC1CCc2c(sc(Nc3nc4c(F)cccc4s3)c2C(N)=O)C1 (configuration not stated)	0.67

List log10 of IC50 for every entry below, keeping the order given.
1. O=C(CSc1ccc2nnc(-c3ccncc3)n2n1)c1ccc(Cl)cc1
2. Cc1ccc(S(=O)(=O)N2CCN(c3ccc(Nc4cccnc4)nn3)CC2)c(C)c1
3. COc1cc(OC)cc(C(=O)N(CCCN(C)C)c2nc3c(C)c(C)ccc3s2)c1
4. O=C(CSc1nncc(=O)[nH]1)Nc1ccc(Br)cc1

1. -0.37
2. 0.59
3. 0.67
4. 0.45

List log10 of IC50 for every entry below, keeping the order given.
1. Cc1cc(NC(=O)COc2ccc(Cl)cc2)n(-c2nc(C)c(C)c(=O)[nH]2)n1
2. Cc1nc2scc(-c3cccc(NC(=O)NC4CCCCC4)c3)n2c(=O)c1C

[-0.44, 0.55]

---

Test system: Trypanosoma brucei brucei
experimental details: WHO-TDR: Human African Trypanosomiasis (HAT)
Format: functional, organism-based
assay setup: Squib-427
observed property: IC50 (µg/mL)
Give bare numbers, in µg/mL.

Past entries and their recorded results:
CCc1cc(=O)[nH]c(-n2nc(C)cc2NC(=O)Cc2cccs2)n1	0.338
Cc1cc2cc(CNC(=O)c3ccccc3Br)ccc2n1C	3.39

List IC50 for every entry below, keeping the order given.
1. O=C(CCCS(=O)(=O)c1ccc(F)cc1)Nc1nc2c(s1)CSc1ccccc1-2
2. Cc1cc(C)c(S(=O)(=O)NCCNc2ccc(Nc3cccc(C)n3)nn2)c(C)c1

1: 4.36; 2: 4.14
